- Measured Target: MAGL (Mus musculus)
- Sequence (O35678 1-303): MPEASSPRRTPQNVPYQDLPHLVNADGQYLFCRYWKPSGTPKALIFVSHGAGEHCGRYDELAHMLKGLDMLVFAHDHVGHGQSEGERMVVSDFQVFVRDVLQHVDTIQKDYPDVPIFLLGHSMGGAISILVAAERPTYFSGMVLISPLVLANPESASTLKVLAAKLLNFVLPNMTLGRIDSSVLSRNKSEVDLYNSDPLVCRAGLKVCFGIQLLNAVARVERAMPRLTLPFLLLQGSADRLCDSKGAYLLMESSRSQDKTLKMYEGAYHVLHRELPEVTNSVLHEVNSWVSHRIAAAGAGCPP
- Experimental Protocol: In vitro competitive ABPP, % inhibition at fixed concentration, MAGL
- Assay type: biochemical
- Parameters: from tissue
Property Measured: inhibition at 1 µM

INSERT INTO measurements (compound, endpoint_result) VALUES
  ('Cc1cc(-c2ccncc2C)ccc1CN1CCN(C(=O)ON2C(=O)CCC2=O)CC1 [Example 171]', '25 to 75%'),
  ('O=C(ON1C(=O)CCC1=O)N1CCN(C(c2cccnc2)c2cccnc2)CC1 [Example 155]', '25 to 75%'),
  ('O=C(ON1C(=O)CCC1=O)N1CCN(Cc2ccc(Cl)cc2N2CCC2)CC1 [Example 112]', '> 75%'),
  ('O=C(ON1C(=O)CCC1=O)N1CCN(Cc2ccc(Cl)cc2C(=O)N2CCOCC2)CC1 [Example 195]', '< 25%'),
  ('O=C(ON1C(=O)CCC1=O)N1CCN(C(c2ccc3c(c2)COC3)c2ccc3c(c2)COC3)CC1 [Example 157]', '25 to 75%'),
  ('C[C@@H]1CN(Cc2ccc(N3CCOCC3)cc2F)CCN1C(=O)ON1C(=O)CCC1=O [Example 79]', '< 25%'),
  ('O=C(ON1C(=O)CCC1=O)N1CCN(Cc2ccc(-c3cccc(F)c3)cc2F)CC1 [Example 162]', '> 75%'),
  ('Cc1cc(-c2ccc(CN3CCN(C(=O)ON4C(=O)CCC4=O)CC3)c(F)c2)ccn1 [Example 166]', '25 to 75%');
